# System: Staphylococcus aureus (S. aureus) (NCTC 10788)
# assay-method-text: MIC/MBC determination
# Type: cell-based
# setup-conditions: MHB, 5 × 10^5 CFU/ml, 37 °C, 20 h, read at 550 nm
Where no end group is shown, it is not given here.
assay-readout: MIC

Prompt: Entry GVIFNALKGVAK-NH2 [GV12] : reported MIC = ?
Completion: > 512 µM

Prompt: Try the substance GVIFNALKGVAKTVAAQLLKKAR-NH2 [GV23]
Completion: 2 µM

Prompt: Try the substance GVIFNALKGVAKTVAAQLLK-NH2 [GV20]
Completion: 4 µM

Prompt: Try the substance GVIFNALK-NH2 [GV8]
Completion: > 512 µM

Prompt: Try the substance TVAAQLLKKAR-NH2 [GV11]
Completion: > 512 µM

Prompt: Try the substance GVIFNALKGVAKTVAAQLLKK-NH2 [GV21]
Completion: 2 µM

----------
Each entry below carries its recorded MBC.
# Tested on: MRSA (NCTC 12493)
# assay-method-text: MIC/MBC determination
# Format: cell-based, Methicillin-resistant Staphylococcus aureus
# setup-conditions: 10 µl from MIC wells on MHA, 37 °C, 20 h, no colony growth
Where no end group is shown, it is not given here.
Give the value, in units of µM, as a plain number.

Prompt: Entry GVIFNALKGVAKTVAAQLLK-NH2 [GV20] : reported MBC = ?
Completion: 8

Prompt: Try the substance GVIFNALKGVAKTVAAQLLKKAR-NH2 [GV23]
Completion: 2

Prompt: Try the substance GVIFNALKGVAKTVAAQLLKK-NH2 [GV21]
Completion: 4

----------
# Tested on: MRSA (BO42 V2E1 A)
# assay-method-text: MIC/MBC determination
# Format: cell-based, Methicillin-resistant Staphylococcus aureus
# setup-conditions: 10 µl from MIC wells on MHA, 37 °C, 20 h, no colony growth
Where no end group is shown, it is not given here.
Each entry below carries its recorded MBC.
Give the value, in units of µM, as a plain number.

Some entries whose results are on file:
GVIFNALKGVAKTVAAQLLKKAR-NH2 [GV23]    8
GVIFNALKGVAKTVAAQLLKK-NH2 [GV21]    16

Turning to the following substance.
Prompt: Entry GVIFNALKGVAKTVAAQLLK-NH2 [GV20] : reported MBC = ?
Completion: 64

----------
# Tested on: MRSA (BO38 V1S1 A)
# assay-method-text: MIC/MBC determination
# Type: cell-based, Methicillin-resistant Staphylococcus aureus
# setup-conditions: MHB, 5 × 10^5 CFU/ml, 37 °C, 20 h, read at 550 nm
Where no end group is shown, it is not given here.
Each entry below carries its recorded MIC.

Some entries whose results are on file:
GVIFNALKGVAKTVAAQLLKKAR-NH2 [GV23]    2 µM
TVAAQLLKKAR-NH2 [GV11]    > 512 µM
GVIFNALKGVAK-NH2 [GV12]    > 512 µM

Prompt: Entry GVIFNALKGVAKTVAAQLLKK-NH2 [GV21] : reported MIC = ?
Completion: 8 µM

Prompt: Try the substance GVIFNALKGVAKTVAAQLLK-NH2 [GV20]
Completion: 16 µM

Prompt: Try the substance GVIFNALK-NH2 [GV8]
Completion: > 512 µM
